# credit: patent US8889677B2

target: human recombinant mGluR5 (Homo sapiens, UniProt P41594); construct: tetracycline removed 3-7 days before the assay; experiment: positive modulation of mGluR5, calcium based FLIPR assay in HEK 293 cells; conditions: HEK 293 cell line expressing human recombinant mGluR5; EC50 of the modulation of the glutamate response (glutamate approx. 5% basal stimulation); peak height of Ca release fluorescence signal
Sequence (P41594 21-1212): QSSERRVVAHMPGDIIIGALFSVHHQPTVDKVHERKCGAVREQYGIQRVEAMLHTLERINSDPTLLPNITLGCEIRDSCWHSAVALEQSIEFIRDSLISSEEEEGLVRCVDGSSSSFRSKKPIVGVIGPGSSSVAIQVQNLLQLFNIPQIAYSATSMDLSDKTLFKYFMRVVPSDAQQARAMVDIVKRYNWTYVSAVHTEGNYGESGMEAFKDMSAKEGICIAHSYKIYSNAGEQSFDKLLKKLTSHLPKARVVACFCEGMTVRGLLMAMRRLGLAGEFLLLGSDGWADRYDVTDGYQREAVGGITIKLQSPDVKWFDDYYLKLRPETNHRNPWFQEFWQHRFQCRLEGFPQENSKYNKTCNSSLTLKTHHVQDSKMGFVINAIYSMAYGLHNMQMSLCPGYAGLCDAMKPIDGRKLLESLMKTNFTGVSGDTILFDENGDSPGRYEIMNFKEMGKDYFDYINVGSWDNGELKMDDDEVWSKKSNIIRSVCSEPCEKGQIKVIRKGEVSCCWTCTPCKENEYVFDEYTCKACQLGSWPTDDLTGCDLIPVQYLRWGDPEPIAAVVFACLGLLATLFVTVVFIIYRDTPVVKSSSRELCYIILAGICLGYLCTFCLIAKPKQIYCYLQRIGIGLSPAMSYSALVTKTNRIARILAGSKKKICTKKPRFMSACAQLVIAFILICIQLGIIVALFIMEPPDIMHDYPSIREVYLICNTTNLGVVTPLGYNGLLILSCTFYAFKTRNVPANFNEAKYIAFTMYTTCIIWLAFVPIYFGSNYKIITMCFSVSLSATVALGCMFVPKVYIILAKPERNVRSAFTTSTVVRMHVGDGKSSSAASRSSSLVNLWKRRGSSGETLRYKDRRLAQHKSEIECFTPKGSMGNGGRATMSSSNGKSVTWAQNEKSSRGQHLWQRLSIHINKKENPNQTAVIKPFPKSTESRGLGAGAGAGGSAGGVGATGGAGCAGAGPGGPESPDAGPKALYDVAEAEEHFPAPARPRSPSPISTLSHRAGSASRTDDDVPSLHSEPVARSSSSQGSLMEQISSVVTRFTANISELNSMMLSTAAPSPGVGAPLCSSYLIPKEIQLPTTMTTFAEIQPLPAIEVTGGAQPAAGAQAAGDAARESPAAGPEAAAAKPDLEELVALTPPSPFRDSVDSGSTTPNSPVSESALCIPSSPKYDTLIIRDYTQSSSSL
Give pEC50 for every item shown.
// pEC50 is dimensionless: -log10 of concentration (M)

Provide pEC50, system human recombinant mGluR5 (Homo sapiens, UniProt P41594), entry O=C(Cn1nc(-c2ccc(F)cc2)nc1C#CC1CCCCC1)N1CCN(c2ccccn2)CC1 [Example 07.11.02.]
6.38

Provide pEC50, system human recombinant mGluR5 (Homo sapiens, UniProt P41594), entry CC(=O)N1CCC(Oc2cc(N3CCN(C(=O)Cn4nc(-c5ccc(F)cc5)nc4-c4ccc(F)cc4)CC3)ncn2)CC1 [Example 07.09.08.]
7.13

Provide pEC50, system human recombinant mGluR5 (Homo sapiens, UniProt P41594), entry Cc1ccnc(N2CCN(C(=O)Cn3nc(-c4ccccc4)nc3-c3ccc(F)c(C)c3)CC2)c1 [Example 07.04.075.]
6.18

Provide pEC50, system human recombinant mGluR5 (Homo sapiens, UniProt P41594), entry O=C(Cn1nc(-c2cccc(F)c2)nc1-c1cccc(F)c1)N1CCN(c2ncccn2)CC1 [Example 07.04.023.]
6.43

Provide pEC50, system human recombinant mGluR5 (Homo sapiens, UniProt P41594), entry COc1ccc(-c2nc(-c3ccccc3)n(CC(=O)N3CCN(c4ccccn4)CC3)n2)cc1OC [Example 07.02.18.]
6.64

Provide pEC50, system human recombinant mGluR5 (Homo sapiens, UniProt P41594), entry O=C1CCCN1CCCOc1cc(N2CCN(C(=O)Cn3nc(-c4ccc(F)cc4)nc3-c3ccc(F)cc3)CC2)ncn1 [Example 07.09.27.]
7.07

Provide pEC50, system human recombinant mGluR5 (Homo sapiens, UniProt P41594), entry O=C(Cn1nc(-c2ccc(F)cc2)nc1-c1ccc(F)cc1)N1CCN(c2cc(OCC3CCOCC3)ncn2)CC1 [Example 07.09.29.]
7.36

---

target: human recombinant mGluR5 (Homo sapiens, UniProt P41594); construct: tetracycline removed 3-7 days before the assay; assay: positive modulation of mGluR5, calcium based FLIPR assay in HEK 293 cells; settings: HEK 293 cell line expressing human recombinant mGluR5; EC50 of the modulation of the glutamate response (glutamate approx. 5% basal stimulation); peak height of Ca release fluorescence signal
Flag rule - EC50 less than 100 nM flags True; the remaining entries get False.

For this molecule, is EC50 lower than 100 nM? COc1ccc(-c2nc(-c3ccc(F)cc3)nn2CC(=O)N2CCN(c3ncccn3)CC2)cc1
True

For this molecule, is EC50 lower than 100 nM? CCCCCc1nc(-c2ccc(F)c(C)c2)nn1CC(=O)N1CCN(c2ncccn2)CC1
True

For this molecule, is EC50 lower than 100 nM? COc1cc(-c2nc(-c3ccc(F)cc3)nn2CC(=O)N2CCN(c3ncccn3)CC2)ccc1F
False

For this molecule, is EC50 lower than 100 nM? N#Cc1ccc(N2CCN(C(=O)Cn3nc(-c4ccc(F)cc4)nc3-c3ccc(F)cc3)CC2)nc1
False

For this molecule, is EC50 lower than 100 nM? COc1cc(N2CCN(C(=O)Cn3nc(-c4ccc(F)cn4)nc3-c3ccc(F)cc3)CC2)ncn1
False

For this molecule, is EC50 lower than 100 nM? COc1ccc(-c2nc(-c3ccccc3)n(CC(=O)N3CCN(c4cc(OC)ccn4)CC3)n2)cc1
True

For this molecule, is EC50 lower than 100 nM? COc1cccc(-c2nc(-c3ccc(F)cc3)n(CC(=O)N3CCN(c4ncccn4)CC3)n2)c1
True

For this molecule, is EC50 lower than 100 nM? COc1cc(-c2nc(-c3ccc(F)cc3)n(CC(=O)N3CCN(c4ccccn4)CC3)n2)ccc1F
True

For this molecule, is EC50 lower than 100 nM? COCCOCCOc1cc(N2CCN(C(=O)Cn3nc(-c4ccc(F)cc4)nc3-c3ccc(F)cc3)CC2)ncn1
False

For this molecule, is EC50 lower than 100 nM? COCc1ccc(-c2nc(-c3ccccc3)nn2CC(=O)N2CCN(c3ncccn3)CC2)cc1
False

For this molecule, is EC50 lower than 100 nM? COc1ccc(-c2nc(-c3ccccc3)n(CC(=O)N3CCN(c4ncccn4)CC3)n2)cc1
True

For this molecule, is EC50 lower than 100 nM? COc1cc(N2CCN(C(=O)Cn3nc(-c4ccc(F)cc4)nc3-c3ccccc3)CC2)ncn1
False

For this molecule, is EC50 lower than 100 nM? COC1CCN(c2cc(N3CCN(C(=O)Cn4nc(-c5ccc(F)cc5)nc4-c4ccc(F)cc4)CC3)ncn2)CC1
False

For this molecule, is EC50 lower than 100 nM? Cc1ccnc(N2CCN(C(=O)Cn3nc(-c4cccc(F)c4)nc3-c3cccc(F)c3)CC2)c1
False

For this molecule, is EC50 lower than 100 nM? COc1ccnc(N2CCN(C(=O)Cn3nc(-c4ccc(F)c(C)c4)nc3C3CCCCC3C)CC2)c1 (stereo not drawn)
False

---

target: human recombinant mGluR5 (Homo sapiens); construct: tetracycline removed 3-7 days before the assay; experiment: positive modulation of mGluR5, calcium based FLIPR assay in HEK 293 cells; conditions: HEK 293 cell line expressing human recombinant mGluR5; EC50 of the modulation of the glutamate response (glutamate approx. 5% basal stimulation); peak height of Ca release fluorescence signal
Attribute measured: pEC50
// pEC50 is dimensionless: -log10 of concentration (M)

Retrieve pEC50 measured for Cc1cc(-c2nc(C3CCCC3)n(CC(=O)N3CCN(c4ncccn4)CC3)n2)ccc1F [Example 07.04.111.] and print it.
6.88

Retrieve pEC50 measured for O=C(Cn1nc(-c2ccc(F)cc2)nc1-c1ccc(F)cc1)N1CCN(c2cnccn2)CC1 [Example 07.04.008.] and print it.
6.93

Retrieve pEC50 measured for CCNc1cc(N2CCN(C(=O)Cn3nc(-c4ccc(F)cc4)nc3-c3ccc(F)cc3)CC2)ncn1 [Example 07.08.12.] and print it.
6.68

Retrieve pEC50 measured for O=C(Cn1nc(-c2ccc(F)cc2)nc1-c1ccc(F)cc1)N1CCN(c2cc(OC3CCCOC3)ncn2)CC1 (stereo not shown) [Example 07.09.09.] and print it.
6.96

Retrieve pEC50 measured for Cc1cc(-c2nc(-c3ccccc3)nn2CC(=O)N2CCN(c3ccccn3)CC2)ccc1F [Example 07.04.076.] and print it.
6.66

Retrieve pEC50 measured for COc1ccc(-c2nc(-c3ccc(F)cc3)nn2CC(=O)N2CCN(c3ncc(Cl)cn3)CC2)cc1 [Example 07.04.045.] and print it.
7.10

Retrieve pEC50 measured for COc1ccc(-c2nc(-c3ccc(F)cc3)nn2CC(=O)N2CCN(c3cc(OC)ncn3)CC2)cc1 [Example 07.04.042.] and print it.
6.83

---

target: human recombinant mGluR5 (Homo sapiens); construct: tetracycline removed 3-7 days before the assay; assay: positive modulation of mGluR5, calcium based FLIPR assay in HEK 293 cells; settings: HEK 293 cell line expressing human recombinant mGluR5; EC50 of the modulation of the glutamate response (glutamate approx. 5% basal stimulation); peak height of Ca release fluorescence signal
Attribute measured: pEC50
// pEC50 is dimensionless: -log10 of concentration (M)

Retrieve pEC50 measured for COc1ccc(-c2nc(-c3ccc(F)cc3)n(CC(=O)N3CCN(c4cc(OC)ncn4)CC3)n2)cc1 and print it.
7.28

Retrieve pEC50 measured for CN(C)c1nccc(N2CCN(C(=O)Cn3nc(-c4ccc(F)cc4)nc3-c3ccc(F)cc3)CC2)n1 and print it.
6.32

Retrieve pEC50 measured for Cc1cc(C#N)nc(N2CCN(C(=O)Cn3nc(-c4ccc(F)cc4)nc3-c3ccc(F)cc3)CC2)n1 and print it.
6.24

Retrieve pEC50 measured for COc1ccc(-c2nc(-c3ccc(OC)cc3)n(CC(=O)N3CCN(c4ncccn4)CC3)n2)cc1 and print it.
7.21

---

target: human recombinant mGluR5 (Homo sapiens, UniProt P41594); construct: tetracycline removed 3-7 days before the assay; assay: positive modulation of mGluR5, calcium based FLIPR assay in HEK 293 cells; settings: HEK 293 cell line expressing human recombinant mGluR5; EC50 of the modulation of the glutamate response (glutamate approx. 5% basal stimulation); peak height of Ca release fluorescence signal
Attribute measured: pEC50
// pEC50 is dimensionless: -log10 of concentration (M)

Retrieve pEC50 measured for Cc1ccc(-c2nc(-c3ccccc3)n(CC(=O)N3CCN(c4ncccn4)CC3)n2)cc1C and print it.
7.62

Retrieve pEC50 measured for CC(C)Oc1ccc(-c2nc(-c3ccccc3)n(CC(=O)N3CCN(c4ncccn4)CC3)n2)cc1 and print it.
5.98

Retrieve pEC50 measured for O=C(Cn1nc(-c2ccc(F)cc2)nc1-c1ccc(F)cc1)N1CCN(c2cc(OC3CCOCC3)ncn2)CC1 and print it.
7.10

Retrieve pEC50 measured for Cc1cc(-c2nc(-c3ccccc3)n(CC(=O)N3CCN(c4ncccn4)CC3)n2)ccc1Br and print it.
7.89

Retrieve pEC50 measured for COc1ccnc(N2CCN(C(=O)Cn3nc(-c4ccc(F)c(C)c4)nc3C)CC2)c1 and print it.
5.82

Retrieve pEC50 measured for CCc1nc(-c2ccc(OC(F)F)cc2)nn1CC(=O)N1CCN(c2ncccn2)CC1 and print it.
6.07

Retrieve pEC50 measured for COc1ccc(-c2nc(-c3ccc(OC)cc3)n(CC(=O)N3CCN(c4ncccc4C#N)CC3)n2)cc1 and print it.
6.58
